B1: KefC WT*-GFP fusion [Escherichia coli] / itself (parent)
chain: MDSHTLIQALIYLGSAALIVPIAVRLGLGSVLGYLIAGCIIGPWGLRLVTDAESILHFAEIGVVLMLFIIGLELDPQRLWKLRAAVFGCGALQMVICGGLLGLFCMLLGLRWQVAELIGMTLALSSTAIAMQAMNERNLMVTQMGRSAFAVLLFQDIAAIPLVAMIPLLATSSASTTMGAFALSALKVAGALVLVVLLGRYVTRPALRFVARSGLREVFSAVALFLVFGFGLLLEEVGLSMAMGAFLAGVLLASSEYRHALESDIEPFKGLLLGLFFIGVGMSIDFGTLLENPLRIVILLLGFLIIKIAMLWLIARPLQVPNKQRRWFAVLLGQGSEFAFVVFGAAQMANVLEPEWAKSLTLAVALSMAATPILLVILNRLEQSSTEEAREADEIDEEQPRVIIAGFGRFGQITGRLLLSSGVKMVVLDHDPDHIETLRKFGMKVFYGDATRMDLLESAGAAKAEVLINAIDDPQTNLQLTEMVKEHFPHLQIIARARDVDHYIRLRQAGVEKPERETFEGALKTGRLALESLGLGPYEARERADVFRRFNIQMVEEMAM

Variants of: B1
Experiment: FSEC of DDM solubilized membranes after heating
Parameters: unit not given here
Settings: with itself; 10 mins at 60 °C; 1 mM AMP; read off a plot
Could you label it class 1 if measured screen value is 70 or higher, and class 0 otherwise?

Prompt: Determine whether measured screen value meets or exceeds 70 for chain 1 E465A
Completion: class 0

Prompt: Determine whether measured screen value meets or exceeds 70 for chain 1 R146A
Completion: class 1

Prompt: Determine whether measured screen value meets or exceeds 70 for chain 1 R543A
Completion: class 0

Prompt: Determine whether measured screen value meets or exceeds 70 for chain 1 K81A
Completion: class 0

Prompt: Determine whether measured screen value meets or exceeds 70 for chain 1 R401A
Completion: class 1

Prompt: Determine whether measured screen value meets or exceeds 70 for chain 1 H259A
Completion: class 0

Prompt: Determine whether measured screen value meets or exceeds 70 for chain 1 N135A
Completion: class 1
